- Test system: S. aureus ATCC 43300 (MRSA, FQ-S)
- METHOD_NOTES: MIC, CLSI broth microdilution (Table 1)
- Assay type: cell-based
- TEST_CONDITIONS: Staphylococcus aureus; Gram positive; MHB, 37° C., 16-20 hours; read-out: MIC S. aureus ATCC 43300 (MRSA, FQ-S)
Structures can show the parent of a compound that is named as a salt.
RECORDED_METRIC: MIC

Lookup: Reported MIC for Cc1c(N2CCC[C@H](N)C2)ccn2c(=O)c(C(=O)O)cc(C3CC3)c12 [Example 35 K salt] : what is it?
Found: 0.032 µg/mL

Lookup: Reported MIC for Cc1c(-c2cccc(N)c2)ccn2c(=O)c(C(=O)O)cc(C3CC3)c12 [Example 3 K salt] : what is it?
Found: 0.016 µg/mL

Lookup: Reported MIC for Cc1c(-c2ccc3[nH]ccc3c2)ccn2c(=O)c(C(=O)O)cc(C3CC3)c12 [Example 22 K salt] : what is it?
Found: 0.016 µg/mL

Lookup: Reported MIC for Cc1c(-c2ccnc(F)c2)ccn2c(=O)c(C(=O)O)cc(C3CC3)c12 [Example 20 K salt] : what is it?
Found: 0.016 µg/mL

Lookup: Reported MIC for Cc1c(N2CC[C@H](N)C2)ccn2c(=O)c(C(=O)O)cc(C3CC3)c12 [Example 27 K salt] : what is it?
Found: 0.5 µg/mL

Lookup: Reported MIC for Cc1cc(-c2ccn3c(=O)c(C(=O)O)cc(C4CC4)c3c2C)ccc1N [Example 19 K salt] : what is it?
Found: 0.016 µg/mL

Lookup: Reported MIC for Cc1c(-c2cc[nH]c2)ccn2c(=O)c(C(=O)O)cc(C3CC3)c12 [Example 43 K salt] : what is it?
Found: 0.032 µg/mL

Lookup: Reported MIC for Cc1cc(-c2ccn3c(=O)c(C(=O)O)cc(C4CC4)c3c2C)c(Cl)cc1N [Example 30 K salt] : what is it?
Found: 0.032 µg/mL

###

I'd appreciate it if you could supply MIC values for the items below.
- Test system: E. faecium ATCC 19434
- METHOD_NOTES: MIC, CLSI broth microdilution (Table 1)
- Type: cell-based
- TEST_CONDITIONS: Enterococcus faecium, ATCC19434, read-out: MIC E. faecium ATCC 19434
Counter-ions that a name gives are not always drawn.
Number plus unit, in that order.

Lookup: Reported MIC for Cc1c(-c2ccc(O)cc2)ccn2c(=O)c(C(=O)O)cc(C3CC3)c12 [Example 46 K salt] : what is it?
Found: 0.25 µg/mL

Lookup: Reported MIC for Cc1c(-c2cc(F)c(N)cc2F)ccn2c(=O)c(C(=O)O)cc(C3CC3)c12 [Example 28 K salt] : what is it?
Found: 0.25 µg/mL

Lookup: Reported MIC for Cc1c(-c2ccc(N)c(F)c2)c(F)cn2c(=O)c(C(=O)O)cc(C3CC3)c12 [Example 1 K salt] : what is it?
Found: 0.25 µg/mL

Lookup: Reported MIC for Cc1c(-c2ccc(N)cc2)c(F)cn2c(=O)c(C(=O)O)cc(C3CC3)c12 [Example 5 K salt] : what is it?
Found: 0.5 µg/mL

Lookup: Reported MIC for Cc1c(-c2ccc3[nH]ncc3c2)ccn2c(=O)c(C(=O)O)cc(C3CC3)c12 [Example 23 K salt] : what is it?
Found: 0.25 µg/mL

###

I'd appreciate it if you could supply MIC values for the items below.
- Test system: E. coli ATCC 25922
- METHOD_NOTES: MIC, CLSI broth microdilution (Table 2)
- Format: cell-based
- TEST_CONDITIONS: Escherichia coli, ATCC25922, read-out: MIC E. coli ATCC 25922
Structures can show the parent of a compound that is named as a salt.
Answer in mg/L, number only, no unit symbol.

Lookup: Reported MIC for Cc1c(-c2cc(F)c(N)c(F)c2)ccn2c(=O)c(C(=O)O)cc(C3CC3)c12 [Example 39 K salt] : what is it?
Found: 0.064

Lookup: Reported MIC for Cc1c(-c2ccncc2)ccn2c(=O)c(C(=O)O)cc(C3CC3)c12 [Example 16 K salt] : what is it?
Found: 0.032

Lookup: Reported MIC for Cc1c(-c2ccc3[nH]ncc3c2)ccn2c(=O)c(C(=O)O)cc(C3CC3)c12 [Example 23 K salt] : what is it?
Found: 0.032

###

- Test system: K. pneumoniae ATCC 33495
- METHOD_NOTES: MIC, CLSI broth microdilution (Table 2)
- Type: cell-based
- TEST_CONDITIONS: Klebsiella pneumoniae, ATCC33495; Gram negative; MHB, 37° C., 16-20 hours; read-out: MIC K. pneumoniae ATCC 33495
Counter-ions that a name gives are not always drawn.
RECORDED_METRIC: MIC

Lookup: Lab note: need MIC with K. pneumoniae ATCC 33495 for entry Cc1c(-c2ccc(C#N)c(F)c2)ccn2c(=O)c(C(=O)O)cc(C3CC3)c12 [Example 40 K salt] , please look it up.
Found: 0.5 to 1 µg/mL

Lookup: Lab note: need MIC with K. pneumoniae ATCC 33495 for entry Cc1c(-c2ccc(C(=O)O)cc2)c(F)cn2c(=O)c(C(=O)O)cc(C3CC3)c12 [Example 41 K salt] , please look it up.
Found: > 8 µg/mL

Lookup: Lab note: need MIC with K. pneumoniae ATCC 33495 for entry Cc1c(-c2cc(F)c(N)cc2F)c(F)cn2c(=O)c(C(=O)O)cc(C3CC3)c12 [Example 38 K salt] , please look it up.
Found: 1 to 2 µg/mL

###

- Test system: S. aureus ATCC 43300 (MRSA, FQ-S)
- METHOD_NOTES: MIC, CLSI broth microdilution (Table 1)
- Format: cell-based
- TEST_CONDITIONS: Staphylococcus aureus; Gram positive; MHB, 37° C., 16-20 hours; read-out: MIC S. aureus ATCC 43300 (MRSA, FQ-S)
Structures can show the parent of a compound that is named as a salt.
I'd appreciate it if you could supply MIC values for the items below.
Answer in µg/mL, number only, no unit symbol.

Lookup: Reported MIC for Cc1c(N2CC[C@H](N)C2)c(F)cn2c(=O)c(C(=O)O)cc(C3CC3)c12 [Example 26 K salt] : what is it?
Found: 0.032

Lookup: Reported MIC for Cc1c(-c2ccc(C(=O)O)cc2)c(F)cn2c(=O)c(C(=O)O)cc(C3CC3)c12 [Example 41 K salt] : what is it?
Found: 0.25

Lookup: Reported MIC for Cc1c(-c2ccc(F)cc2)ccn2c(=O)c(C(=O)O)cc(C3CC3)c12 [Example 44 K salt] : what is it?
Found: 0.016

Lookup: Reported MIC for CNc1ccc(-c2ccn3c(=O)c(C(=O)O)cc(C4CC4)c3c2C)cc1 [Example 15 K salt] : what is it?
Found: 0.016

Lookup: Reported MIC for COc1c(N2C[C@@H]3CCCN[C@@H]3C2)c(F)cc2c(=O)c(C(=O)O)cn(C3CC3)c12 [Moxyfloxacin, reference compound] : what is it?
Found: 0.064

Lookup: Reported MIC for Cc1c(-c2cc(N)cc(F)c2)ccn2c(=O)c(C(=O)O)cc(C3CC3)c12 [Example 9 K salt] : what is it?
Found: 0.008

Lookup: Reported MIC for Cc1c(-c2cccnc2)ccn2c(=O)c(C(=O)O)cc(C3CC3)c12 [Example 17 K salt] : what is it?
Found: 0.016

Lookup: Reported MIC for Cc1c(-c2ccc(CO)cc2)ccn2c(=O)c(C(=O)O)cc(C3CC3)c12 [Example 48 K salt] : what is it?
Found: 0.008

Lookup: Reported MIC for Cc1c(-c2cccc(F)c2)ccn2c(=O)c(C(=O)O)cc(C3CC3)c12 [Example 10 K salt] : what is it?
Found: 0.008

Lookup: Reported MIC for COc1ccc(-c2ccn3c(=O)c(C(=O)O)cc(C4CC4)c3c2C)cc1 [Example 47 K salt] : what is it?
Found: 0.016

Lookup: Reported MIC for Cc1c(-c2ccc(C(=O)O)cc2)ccn2c(=O)c(C(=O)O)cc(C3CC3)c12 [Example 37 K salt] : what is it?
Found: 0.125

Lookup: Reported MIC for Cc1c(-c2ccc(NS(C)(=O)=O)cc2)ccn2c(=O)c(C(=O)O)cc(C3CC3)c12 [Example 14 K salt] : what is it?
Found: 0.016

Lookup: Reported MIC for Cc1c(-c2ccc(N)cc2)ccn2c(=O)c(C(=O)O)cc(C3CC3)c12 [Example 18 K salt] : what is it?
Found: 0.008

Lookup: Reported MIC for Cc1c(-c2cccc(N)c2)c(F)cn2c(=O)c(C(=O)O)cc(C3CC3)c12 [Example 4 K salt] : what is it?
Found: 0.016

###

- Test system: S. aureus ATCC 43300 (MRSA, FQ-S)
- METHOD_NOTES: MIC, CLSI broth microdilution (Table 1)
- Assay type: cell-based
- TEST_CONDITIONS: Staphylococcus aureus; Gram positive; MHB, 37° C., 16-20 hours; read-out: MIC S. aureus ATCC 43300 (MRSA, FQ-S)
Counter-ions that a name gives are not always drawn.
I'd appreciate it if you could supply MIC values for the items below.
Answer in µg/mL, number only, no unit symbol.

Lookup: Reported MIC for CC(=O)Nc1ccc(-c2ccn3c(=O)c(C(=O)O)cc(C4CC4)c3c2C)cc1 [Example 13 K salt] : what is it?
Found: 0.008

Lookup: Reported MIC for Cc1c(-c2ccc(Cl)cc2)ccn2c(=O)c(C(=O)O)cc(C3CC3)c12 [Example 45 K salt] : what is it?
Found: 0.016

Lookup: Reported MIC for Cc1c(-c2ccc(NC(N)=O)cc2)ccn2c(=O)c(C(=O)O)cc(C3CC3)c12 [Example 24 K salt] : what is it?
Found: 0.032

Lookup: Reported MIC for `C[C@H]1COc2c(N3CCN(C)CC3)c(F)cc3c(=O)c(C(=O)O)cn1c23` : what is it?
Found: 0.125

Lookup: Reported MIC for Cc1c(-c2ccc(C(N)=O)cc2)ccn2c(=O)c(C(=O)O)cc(C3CC3)c12 [Example 36 K salt] : what is it?
Found: 0.016

Lookup: Reported MIC for Cc1ccc(-c2ccn3c(=O)c(C(=O)O)cc(C4CC4)c3c2C)cc1 [Example 33 K salt] : what is it?
Found: 0.016

Lookup: Reported MIC for Cc1c(N2CCNCC2)ccn2c(=O)c(C(=O)O)cc(C3CC3)c12 [Example 34 K salt] : what is it?
Found: 0.5

Lookup: Reported MIC for Cc1c(-c2cc(Cl)c(N)c(Cl)c2)ccn2c(=O)c(C(=O)O)cc(C3CC3)c12 [Example 29 K salt] : what is it?
Found: 0.008
